# procedure-summary: Ocular tissue and plasma pharmacokinetics, 15 mg/kg single and BID oral, Dutch Belted rabbits (Example 3/5)
# Type: in vivo
# condition-details: Dutch Belted, rabbit, choroid-RPE, po, 15 mg/kg, Choroid-RPE, DB rabbit, 15 mg/kg BID, Day 15
metric: MRT inf (h)
Quick note: give the figure in h, leave out the unit.

Report MRT inf for CC(=O)c1nn(CC(=O)N2C[C@H](F)C[C@H]2C(=O)Nc2cccc(Br)n2)c2ccc(-c3cnc(C)nc3)cc12 [Compound 1] please.
125

###

# procedure-summary: Ocular tissue and plasma pharmacokinetics, 15 mg/kg single and BID oral, Dutch Belted rabbits (Example 3/5)
# Type: in vivo
# condition-details: Dutch Belted, rabbit, iris-ciliary body, po, 15 mg/kg, DB rabbit, 15 mg/kg single oral dose, Day 1, 240 h; read-out: Mean Iris-Ciliary Body concentration
metric: concentration at 240 h (ng/g)
Provide only the numeric value, understood in ng/g.

Quick check: concentration at 240 h of CC(=O)c1nn(CC(=O)N2C[C@H](F)C[C@H]2C(=O)Nc2cccc(Br)n2)c2ccc(-c3cnc(C)nc3)cc12 ?
33.6
